Biological target: T1, mf TFRC ecto-mmh (REGN2054), monomeric monkey (cyno) Tfrc ectodomain with C-terminal myc-myc-hexahistidine tag (monkey (cyno), Macaca fascicularis, UniProt H9EXL1 89-760)
T1 construct: range 89-760; also called mfTfR-mmh; mfTFR-mmh
T1 sequence (chain, as listed by the source): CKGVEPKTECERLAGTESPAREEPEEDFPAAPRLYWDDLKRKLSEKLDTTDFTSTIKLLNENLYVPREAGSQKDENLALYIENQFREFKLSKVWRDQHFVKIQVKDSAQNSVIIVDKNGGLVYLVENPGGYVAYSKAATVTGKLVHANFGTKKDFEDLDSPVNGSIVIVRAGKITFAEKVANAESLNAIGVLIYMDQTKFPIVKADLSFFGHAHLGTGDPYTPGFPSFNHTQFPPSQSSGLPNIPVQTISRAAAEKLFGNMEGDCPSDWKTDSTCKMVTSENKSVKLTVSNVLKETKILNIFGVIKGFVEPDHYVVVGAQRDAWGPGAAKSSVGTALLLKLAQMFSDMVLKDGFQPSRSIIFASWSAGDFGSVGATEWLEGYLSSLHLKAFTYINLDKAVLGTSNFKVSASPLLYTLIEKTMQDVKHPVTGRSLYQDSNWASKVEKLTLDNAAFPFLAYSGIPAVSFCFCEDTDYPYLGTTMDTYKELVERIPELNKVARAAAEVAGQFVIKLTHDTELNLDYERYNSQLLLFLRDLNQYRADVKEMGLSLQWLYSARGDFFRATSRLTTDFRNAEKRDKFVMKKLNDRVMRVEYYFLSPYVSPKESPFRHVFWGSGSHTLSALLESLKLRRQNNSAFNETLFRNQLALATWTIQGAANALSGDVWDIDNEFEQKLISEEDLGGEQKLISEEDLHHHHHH
Assay: SPR (Biacore), mAb captured on anti-human Fc, 100 nM mfTfR-mmh, 25 C
Description: Biacore binding kinetics assays were conducted for the interaction of 32 anti-human TfR IgG1 monoclonal antibodies from CHO supernatants with TfR reagents at 25° C. Equilibrium dissociation constants (KD) for the interaction of anti-TfR monoclonal antibodies with human and fascicularis monkey TfR ecto domain recombinant proteins were determined using a real-time surface plasmon resonance (SPR) based Biacore S200 biosensor. […]
parameter: 100 nM Ag Bound (RU)
Dear colleague, please return just the value in RU, with no unit written.

100 nM Ag Bound (RU) in this record for 69340 (antibody, human IgG1, kappa, V domains shown, Tested as bivalent human IgG1 from CHO primary supernatant) VH: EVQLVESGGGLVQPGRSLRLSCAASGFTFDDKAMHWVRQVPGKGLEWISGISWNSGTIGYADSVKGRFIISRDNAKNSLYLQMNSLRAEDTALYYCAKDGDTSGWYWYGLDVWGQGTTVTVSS VL: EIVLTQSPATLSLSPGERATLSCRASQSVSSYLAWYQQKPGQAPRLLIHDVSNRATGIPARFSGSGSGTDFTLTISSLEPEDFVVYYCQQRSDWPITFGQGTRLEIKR : 634
